Entries annotated with measured IC50
# System: MCF7
# assay.protocol: Cytotoxicity against human MCF7 cells after 3 days by sulforhodamine B assay
# Assay type: functional, cell-based
# measurement.setup: MCF7, 72 h
Lab book: enter the figure in µM, no units written.

Would you kindly share the measured IC50 for `C=CCCC#CC#CC#CCCCCCCCC(=O)O` ?
10

Which IC50 is reported for this compound? `O=C1c2ccccc2-c2c3c(cc4ccnc1c24)OCO3`
5

So what's the measured IC50 for this one? C=CCCC#CC#CC#CCCCCCC[C@@H]1C[C@@H](CO)OC1=O [OROPHEOLIDE]
10

// returns reported IC50 for input `CCCCC#CC#CC#CCCCCCCCC(=O)O`
10

Entry `C=CCCC#CC#CC#C/C=C/CCCC[C@@H]1C[C@@H](CO)OC1=O` : reported IC50 = ?
10

* * *

Reported pIC50 values follow for various compounds
# Tested on: MCF7
# assay.protocol: Cytotoxicity against human MCF7 cells after 3 days by sulforhodamine B assay
# Format: functional, cell-based
# measurement.setup: MCF7, 72 h
pIC50: −log10 of the molar value.

C=C1C[C@]23C[C@H]1CC[C@H]2[C@]1(C)CCC[C@@]2(C)C(=O)O[C@@H](C3=O)[C@@H]12 [MITREKAURENONE]
< 5.00
C=C1C[C@@]23CC[C@H]4[C@@](C)(CCC[C@]4(C)C(=O)O)[C@@H]2CC[C@@H]1C3
< 5.00

Reported pIC50 for `C=C1C[C@]2(C(=O)O)C[C@H]1CC[C@H]2[C@]1(C)CCC[C@@](C)(C(=O)OC)[C@H]1C(=O)O` : what is it?
< 5.00
